Kindly supply the reported percentage damage caused to the plant, five-point scale, ABUTH values for the records listed here.
# Test system: Abutilon theophrasti (ABUTH)
# Method: Pre-emergence herbicidal test
# Format: in vivo
# Assay context: 1000 g/ha, evaluated after 13 days

Identify the reported percentage damage caused to the plant, five-point scale, ABUTH for the following entry. Cc1ccc2c(c1S(C)(=O)=O)c(=O)c(C(=O)O)nn2-c1ccc(OC(F)(F)F)cc1 2 (2=21-40%)

Identify the reported percentage damage caused to the plant, five-point scale, ABUTH for the following entry. CCOC(=O)c1nn(-c2ccc(OC(F)(F)F)cc2)c2cccc([S+]([O-])CC(F)(F)F)c2c1=O (stereo not drawn) 0 (0=0%)

Identify the reported percentage damage caused to the plant, five-point scale, ABUTH for the following entry. CCOC(=O)c1nn(-c2ccc(OC(F)(F)F)cc2)c2ccc(F)c(S(C)(=O)=O)c2c1=O 0 (0=0%)

Identify the reported percentage damage caused to the plant, five-point scale, ABUTH for the following entry. CCOC(=O)c1nn(-c2ccc(OC(F)(F)F)cc2)c2ccc(C)c(S(C)(=O)=O)c2c1=O 1 (1=10-20%)

Identify the reported percentage damage caused to the plant, five-point scale, ABUTH for the following entry. CC(C)COC(=O)c1nn(-c2ccc(OC(F)(F)F)cc2)c2cccc(S(C)(=O)=O)c2c1=O 0 (0=0%)

Identify the reported percentage damage caused to the plant, five-point scale, ABUTH for the following entry. CCOC(=O)c1nn(-c2ccc(OC(F)(F)F)cc2)c2cccc(SCC(F)(F)F)c2c1=O 0 (0=0%)

Identify the reported percentage damage caused to the plant, five-point scale, ABUTH for the following entry. O=C(O)c1nn(-c2ccc(OC(F)(F)F)cc2)c2cccc(SC3CC3)c2c1=O 0 (0=0%)

Identify the reported percentage damage caused to the plant, five-point scale, ABUTH for the following entry. CC(C)(C)COC(=O)c1nn(-c2ccc(OC(F)(F)F)cc2)c2cccc(S(C)(=O)=O)c2c1=O 0 (0=0%)

Identify the reported percentage damage caused to the plant, five-point scale, ABUTH for the following entry. CCS(=O)(=O)c1cccc2c1c(=O)c(C(=O)O)nn2-c1ccc(OC(F)(F)F)cc1 0 (0=0%)

Identify the reported percentage damage caused to the plant, five-point scale, ABUTH for the following entry. CS(=O)(=O)c1c(Br)ccc2c1c(=O)c(C(=O)O)nn2-c1ccc(OC(F)(F)F)cc1 1 (1=10-20%)

Identify the reported percentage damage caused to the plant, five-point scale, ABUTH for the following entry. O=C(O)c1nn(-c2ccc(OC(F)(F)F)cc2)c2cccc([S+]([O-])C3CC3)c2c1=O (stereo not drawn) 0 (0=0%)

Identify the reported percentage damage caused to the plant, five-point scale, ABUTH for the following entry. CS(=O)(=O)c1cccc2c1c(=O)c(C(=O)OCCC#N)nn2-c1ccc(OC(F)(F)F)cc1 0 (0=0%)

Identify the reported percentage damage caused to the plant, five-point scale, ABUTH for the following entry. CCOC(=O)c1nn(-c2ccc(OC(F)(F)F)cc2)c2cccc(S(=O)(=O)CC)c2c1=O 0 (0=0%)

Identify the reported percentage damage caused to the plant, five-point scale, ABUTH for the following entry. CCCCCCCCCOC(=O)c1nn(-c2ccc(OC(F)(F)F)cc2)c2cccc(S(C)(=O)=O)c2c1=O 0 (0=0%)

Identify the reported percentage damage caused to the plant, five-point scale, ABUTH for the following entry. CCCCCOC(=O)c1nn(-c2ccc(OC(F)(F)F)cc2)c2cccc(S(C)(=O)=O)c2c1=O 0 (0=0%)
